system: SN12C renal; experiment: NCI-60 one-dose screen, 48 h (100 = growth as untreated, 0 = no growth, -100 = all killed); conditions: 10 µM unless noted
The panel holds about 83,000 compounds, 20% with a hit somewhere; the sample as a whole holds those more often. Activity calls are given as the source filed them. How the source made its calls: active means growth percent below 10; inactive means the rest.
Measured quantity: growth

| Compound | growth |
| --- | --- |
| CCN(CC)CCNCC(=O)Oc1ccc(/C=C/C(=O)CC(=O)/C=C/c2ccc(OC(=O)CNCCN(CC)CC)c(OC)c2)cc1OC | 4.14% (active) |
| OC(c1cc(-c2cccc(Cl)c2)nc2ccccc12)C1CCCCN1 (stereo unspecified) | -5.08% (active) |

query: State its growth: CN[C@@H]1C(OC2[C@H](O[C@H]3[C@H](O)[C@@H](O)[C@H](N=C(N)N)[C@@H](O)[C@@H]3N=C(N)N)OC(C)[C@]2(O)CO)OC(CO)C(O)C1O (stereo partly specified)
result: 108% (inactive)

query: State its growth: `COc1cccc(N2CCN(CC(=O)N3CCN(c4nnc(-c5ccc(Cl)cc5)c(-c5ccc(Cl)cc5)n4)CC3)CC2)c1`
result: 76.7% (inactive)

query: State its growth: O=C(c1ccccc1)C(CN1CCCCC1)c1ccccc1 (stereo unspecified)
result: 26% (inactive)

query: State its growth: `CCN(Cc1cccc(S(=O)(=O)[O-])c1)c1ccc(C(=C2C=CC(=[N+](CC)Cc3cccc(S(=O)(=O)O)c3)C=C2)c2ccccc2S(=O)(=O)O)cc1`
result: 109% (inactive)

query: State its growth: `O=C(/C=C/c1c(-c2ccccc2)[nH]c2ccccc12)S(=O)(=O)c1ccccc1`
result: 73.6% (inactive)

query: State its growth: `COc1cccc(/C=N/Nc2nc3ccccc3s2)c1OC`
result: 102% (inactive)

query: State its growth: `Cc1[nH]cnc1/C=C1\SC(N2CCCCC2)=NC1=O`
result: 98.4% (inactive)

query: State its growth: C[C@]12CCC(=O)C=C1CCC1C2[C@@H](O)C[C@@]2(C)C1CC[C@]2(O)C(=O)COC(=O)CCC(=O)O (stereo partly specified)
result: 57.2% (inactive)

query: State its growth: `Nc1nc2c(nnn2Cc2ccc(Cl)c(Cl)c2)c(=O)[nH]1`
result: 89.9% (inactive)

query: State its growth: `COc1ccc(C(=O)/C=C/c2ccc(C)cc2)cc1OC`
result: 75.7% (inactive)

query: State its growth: CCN1CC2=C(Nc3nc(SC)[nH]c(=O)c3C2c2cc(OC)c(OC)c(OC)c2)/C(=C/c2cc(OC)c(OC)c(OC)c2)C1 (stereo unspecified)
result: 95.9% (inactive)

query: State its growth: `CCCCCCCCCCNCCSS(=O)(=O)O`
result: 31.5% (inactive)

query: State its growth: COC(=O)C1=CCC(n2cnc3c(N)ncnc32)O1 (stereo unspecified)
result: 103% (inactive)

query: State its growth: `COc1ccc(-c2cc(-c3cccnc3)nc(S(=O)(=O)CC(=O)Nc3ccc(C)cc3)c2C#N)cc1OC`
result: 97.2% (inactive)

query: State its growth: `COc1cc(/C=C/C(=O)c2c(C)n([O-])c3ccc(Cl)cc3[n+]2=O)cc(OC)c1OC`
result: 80.1% (inactive)

query: State its growth: `Nc1ccc(Oc2c(F)c(F)c(Oc3ccc(N)cc3)c(F)c2F)cc1`
result: 103% (inactive)
